Tested on: barnyardgrass (Echinochloa crus-galli)
ASSAY NOTES: Test A preemergence soil spray, visual injury rating 0-100
Format: in vivo
CONDITIONS: 16 g ai/ha, 0 to 100 scale, 10 days
Give Barnyardgrass plant response rating for every item shown.
Format: numeric value only, no unit, no commentary.

Exam item: For CC1(C(=O)NC2C=CC(C(=O)NO)C2)CN(c2cc(F)cc(F)c2)C(=O)O1 (stereo not shown) , what is its reported Barnyardgrass plant response rating?
Marked response: 0

Exam item: For COC(=O)C1CC(NC(=O)C2(C)CN(c3cc(F)cc(F)c3)C(=O)O2)C1 (stereo not shown) [Compound 118] , what is its reported Barnyardgrass plant response rating?
Marked response: 10

Exam item: For CCOC(=O)C1CC(NC(=O)C2(C)CN(c3cc(F)cc(F)c3)C(=O)O2)C1 (stereo not shown) , what is its reported Barnyardgrass plant response rating?
Marked response: 0

Exam item: For CC1(C(=O)NC2CC=C(C(=O)O)C2)CN(c2cc(F)cc(F)c2)C(=O)O1 (stereo not shown) , what is its reported Barnyardgrass plant response rating?
Marked response: 40

====

Give Foxtail, Green plant response rating for every item shown.
Test system: green foxtail (Setaria viridis)
ASSAY NOTES: Test A preemergence soil spray, visual injury rating 0-100
Format: in vivo
CONDITIONS: 16 g ai/ha, 0 to 100 scale, 10 days
Format: numeric value only, no unit, no commentary.

Exam item: For CC1(C(=O)NC2CC=C(C(=O)O)C2)CN(c2cc(Cl)cc(Cl)c2)C(=O)O1 (stereo not shown) , what is its reported Foxtail, Green plant response rating?
Marked response: 0

Exam item: For CC1(C(=O)NC2C=CC(C(=O)O)C2)CN(c2cc(F)cc(F)c2)C(=O)O1 (stereo not shown) [Compound 138] , what is its reported Foxtail, Green plant response rating?
Marked response: 20

Exam item: For CC(C)OC(=O)C1=CCC(NC(=O)C2(C)CN(c3cc(Cl)cc(Cl)c3)C(=O)O2)C1 (stereo not shown) , what is its reported Foxtail, Green plant response rating?
Marked response: 0

Exam item: For CC1(C(=O)NC2CC=C(C(=O)OCC(F)(F)F)C2)CN(c2cc(Cl)cc(Cl)c2)C(=O)O1 (stereo not shown) , what is its reported Foxtail, Green plant response rating?
Marked response: 10

Exam item: For CC1(C(=O)NC2CC(C(=O)O)C2)CN(c2cc(F)cc(F)c2)C(=O)O1 (stereo not shown) , what is its reported Foxtail, Green plant response rating?
Marked response: 20

Exam item: For C=CC1(C(=O)NC2CC(C(=O)OC)C2)CN(c2cc(F)cc(F)c2)C(=O)O1 (stereo not shown) , what is its reported Foxtail, Green plant response rating?
Marked response: 0

Exam item: For COC(=O)C1=CCC(NC(=O)C2(C)CN(c3cc(F)cc(Cl)c3)C(=O)O2)C1 (stereo not shown) , what is its reported Foxtail, Green plant response rating?
Marked response: 80

Exam item: For COC(=O)C1C=CC(NC(=O)C2(C)CN(c3cc(Cl)c(F)c(Cl)c3)C(=O)O2)C1 (stereo not shown) , what is its reported Foxtail, Green plant response rating?
Marked response: 0

Exam item: For C=CC1(C(=O)NC2C=CC(C(=O)OC)C2)CN(c2cc(F)cc(F)c2)C(=O)O1 (single isomer, unassigned) , what is its reported Foxtail, Green plant response rating?
Marked response: 90

Exam item: For C=CC1(C(=O)NC2COC(C(=O)OC)C2)CN(c2cc(F)cc(F)c2)C(=O)O1 (stereo not shown) , what is its reported Foxtail, Green plant response rating?
Marked response: 0

Exam item: For CC1(C(=O)NC2CC=C(C(=O)OCC(F)F)C2)CN(c2cc(F)cc(F)c2)C(=O)O1 (stereo not shown) , what is its reported Foxtail, Green plant response rating?
Marked response: 0

Exam item: For COC(=O)C1CC(NC(=O)C2(C)CN(c3cc(F)cc(F)c3)C(=O)O2)C1 (stereo not shown) , what is its reported Foxtail, Green plant response rating?
Marked response: 50

Exam item: For CC(C)COC(=O)C1=CCC(NC(=O)C2(C)CN(c3cc(Cl)cc(Cl)c3)C(=O)O2)C1 (stereo not shown) , what is its reported Foxtail, Green plant response rating?
Marked response: 40

Exam item: For CC1(C(=O)NC2C=CC(C(=O)O)C2)CN(c2cc(F)cc(F)c2)C(=O)O1 (stereo not shown) [Compound 131] , what is its reported Foxtail, Green plant response rating?
Marked response: 0

Exam item: For CC(C)COC(=O)C1=CCC(NC(=O)C2(C)CN(c3cc(F)cc(Cl)c3)C(=O)O2)C1 (stereo not shown) , what is its reported Foxtail, Green plant response rating?
Marked response: 0

Exam item: For COC(=O)C1C=CC(NC(=O)C2(C)CN(c3cccc(OC(F)(F)F)c3)C(=O)O2)C1 (mixture of isomers) , what is its reported Foxtail, Green plant response rating?
Marked response: 0

====

Tested on: corn (Zea mays)
ASSAY NOTES: Test A postemergence application, visual injury rating 0-100
Assay type: in vivo
CONDITIONS: Postemergence, 125 g ai/ha, 10 days; 0 is no effect, 100 is complete control
OBSERVED PROPERTY: Corn plant response rating (0 to 100 scale)

Exam item: Tell me reported Corn plant response rating (0 to 100 scale) for CCOC(=O)C1C=CC(NC(=O)C2(C)CN(c3cc(F)cc(Cl)c3)C(=O)O2)C1 (stereo not shown) , tested with corn (Zea mays).
Marked response: 100

Exam item: Tell me reported Corn plant response rating (0 to 100 scale) for CC1(C(=O)NC2C=CC(C(=O)O)C2)CN(c2cc(F)cc(Cl)c2)C(=O)O1 (stereo not shown) , tested with corn (Zea mays).
Marked response: 100

Exam item: Tell me reported Corn plant response rating (0 to 100 scale) for CCS(=O)(=O)NC(=O)C1C=CC(NC(=O)C2(C)CN(c3cc(Cl)cc(Cl)c3)C(=O)O2)C1 (stereo not shown) , tested with corn (Zea mays).
Marked response: 90

Exam item: Tell me reported Corn plant response rating (0 to 100 scale) for CC1(C(=O)N[C@H]2C=C[C@@H](C(=O)O)C2)CN(c2cc(F)cc(F)c2)C(=O)O1 (stereo partly shown) , tested with corn (Zea mays).
Marked response: 90

Exam item: Tell me reported Corn plant response rating (0 to 100 scale) for COC(=O)C1C=CC(NC(=O)C2(C)CN(c3cc(Cl)cc(Cl)c3)C(=O)O2)C1 (stereo not shown) , tested with corn (Zea mays).
Marked response: 100

Exam item: Tell me reported Corn plant response rating (0 to 100 scale) for CC1(C(=O)NC2CC=C(C(=O)O)C2)CN(c2cc(F)cc(F)c2)C(=O)O1 (stereo not shown) , tested with corn (Zea mays).
Marked response: 100

Exam item: Tell me reported Corn plant response rating (0 to 100 scale) for CC(C)COC(=O)C1C=CC(NC(=O)C2(C)CN(c3cc(Cl)cc(Cl)c3)C(=O)O2)C1 (stereo not shown) , tested with corn (Zea mays).
Marked response: 100

Exam item: Tell me reported Corn plant response rating (0 to 100 scale) for CC1(C(=O)NC2CC=C(C(=O)OCC(F)(F)F)C2)CN(c2cc(F)cc(F)c2)C(=O)O1 (single isomer, unassigned) , tested with corn (Zea mays).
Marked response: 90

Exam item: Tell me reported Corn plant response rating (0 to 100 scale) for CCOC(=O)C1CCC(NC(=O)C2(C)CN(c3cc(F)cc(F)c3)C(=O)O2)C1 (stereo not shown) , tested with corn (Zea mays).
Marked response: 80

Exam item: Tell me reported Corn plant response rating (0 to 100 scale) for CC1(C(=O)NC2C=CC(C(=O)NS(=O)(=O)c3ccccc3)C2)CN(c2cc(Cl)cc(Cl)c2)C(=O)O1 (stereo not shown) , tested with corn (Zea mays).
Marked response: 100

Exam item: Tell me reported Corn plant response rating (0 to 100 scale) for CC1(C(=O)NC2C=CC(C(=O)OCCS(C)(=O)=O)C2)CN(c2cc(Cl)cc(Cl)c2)C(=O)O1 (stereo not shown) , tested with corn (Zea mays).
Marked response: 100

Exam item: Tell me reported Corn plant response rating (0 to 100 scale) for CCS(=O)(=O)NC(=O)C1C=CC(NC(=O)C2(C)CN(c3cc(F)cc(F)c3)C(=O)O2)C1 (stereo not shown) , tested with corn (Zea mays).
Marked response: 100

Exam item: Tell me reported Corn plant response rating (0 to 100 scale) for CC(C)OC(=O)C1CCC(NC(=O)C2(C)CN(c3cc(F)cc(F)c3)C(=O)O2)C1 (stereo not shown) , tested with corn (Zea mays).
Marked response: 50

Exam item: Tell me reported Corn plant response rating (0 to 100 scale) for CCOC(=O)COC(=O)C1C=CC(NC(=O)C2(C)CN(c3cc(F)cc(F)c3)C(=O)O2)C1 (stereo not shown) , tested with corn (Zea mays).
Marked response: 100

Exam item: Tell me reported Corn plant response rating (0 to 100 scale) for CNC(=O)C1CCC(NC(=O)C2(C)CN(c3cc(F)cc(F)c3)C(=O)O2)C1 (stereo not shown) , tested with corn (Zea mays).
Marked response: 20

Exam item: Tell me reported Corn plant response rating (0 to 100 scale) for COC(=O)C1C=CC(NC(=O)C2(C)CN(c3cc(F)cc(Cl)c3)C(=O)O2)C1 (stereo not shown) , tested with corn (Zea mays).
Marked response: 100
